Molecular target: human Y2 receptor (human) (UniProt P49146)
Sequence (P49146 whole entry): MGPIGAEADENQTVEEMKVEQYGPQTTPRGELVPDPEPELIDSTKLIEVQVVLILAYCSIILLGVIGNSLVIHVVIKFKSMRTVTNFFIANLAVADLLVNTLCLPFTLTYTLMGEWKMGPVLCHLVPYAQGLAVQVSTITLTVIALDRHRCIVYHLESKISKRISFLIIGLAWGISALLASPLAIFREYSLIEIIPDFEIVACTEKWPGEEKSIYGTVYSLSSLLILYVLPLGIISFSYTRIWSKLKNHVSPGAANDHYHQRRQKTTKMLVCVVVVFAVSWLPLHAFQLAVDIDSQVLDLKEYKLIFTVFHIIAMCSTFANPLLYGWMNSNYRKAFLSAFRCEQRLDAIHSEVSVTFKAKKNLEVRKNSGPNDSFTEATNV
Assay: cell-based or functional assay
Non-standard residues stand in square brackets, D forms with d. *: point of attachment. 3Pal = N[C@@H](Cc1cccnc1)C(=O)O; Cha = N[C@@H](CC1CCCCC1)C(=O)O; Cit = NC(=O)NCCC[C@H](N)C(=O)O; Isobutyryl = CC(C)C(=O)*; Abu = CC[C@H](N)C(=O)O; Dap = NC[C@H](N)C(=O)O; Aib = CC(C)(N)C(=O)O; Bz = O=C(c1ccccc1)*
Reported endpoint: GBA EC50 Ratio (vs PYY(3-36)), [35S]GTPγS

{"Binder": "Ac-S[dP]R[Cit][Cha][Cha]NL[Aib]TRQR[Cha]-NH2 (SMILES CC(=O)N[C@@H](CO)C(=O)N1CCC[C@@H]1C(=O)N[C@@H](CCCNC(=N)N)C(=O)N[C@@H](CCCNC(N)=O)C(=O)N[C@@H](CC1CCCCC1)C(=O)N[C@@H](CC1CCCCC1)C(=O)N[C@@H](CC(N)=O)C(=O)N[C@@H](CC(C)C)C(=O)NC(C)(C)C(=O)N[C@H](C(=O)N[C@@H](CCCNC(=N)N)C(=O)N[C@@H](CCC(N)=O)C(=O)N[C@@H](CCCNC(=N)N)C(=O)N[C@@H](CC1CCCCC1)C(N)=O)[C@@H](C)O) [Ac-[D-Pro24, Cit26, Cha27,28,36, Aib31]-PYY(23-36)]", "Data value": 1.7}
{"Binder": "Isobutyryl-R[Abu][Cha][Cha]NL[3Pal]TRQR[Cha]-NH2 (SMILES CC[C@H](NC(=O)[C@H](CCCNC(=N)N)NC(=O)C(C)C)C(=O)N[C@@H](CC1CCCCC1)C(=O)N[C@@H](CC1CCCCC1)C(=O)N[C@@H](CC(N)=O)C(=O)N[C@@H](CC(C)C)C(=O)N[C@@H](Cc1cccnc1)C(=O)N[C@H](C(=O)N[C@@H](CCCNC(=N)N)C(=O)N[C@@H](CCC(N)=O)C(=O)N[C@@H](CCCNC(=N)N)C(=O)N[C@@H](CC1CCCCC1)C(N)=O)[C@@H](C)O) [Isobutanoyl-[Abu26, Cha27,28,36, Pya(3)31]-PYY(25-36)]", "Data value": 19}
{"Binder": "Bz-RH[Cha]INL[Dap]TRQR[Cha]-NH2 (SMILES CC[C@H](C)[C@H](NC(=O)[C@H](CC1CCCCC1)NC(=O)[C@H](Cc1c[nH]cn1)NC(=O)[C@H](CCCNC(=N)N)NC(=O)c1ccccc1)C(=O)N[C@@H](CC(N)=O)C(=O)N[C@@H](CC(C)C)C(=O)N[C@@H](CN)C(=O)N[C@H](C(=O)N[C@@H](CCCNC(=N)N)C(=O)N[C@@H](CCC(N)=O)C(=O)N[C@@H](CCCNC(=N)N)C(=O)N[C@@H](CC1CCCCC1)C(N)=O)[C@@H](C)O) [Benzoyl-[Cha27,36, Ile28, Dap31]-PYY(25-36)]", "Data value": 28}
{"Binder": "Isobutyryl-R[Abu][Cha]HNL[Aib]TRQR[Cha]-NH2 (SMILES CC[C@H](NC(=O)[C@H](CCCNC(=N)N)NC(=O)C(C)C)C(=O)N[C@@H](CC1CCCCC1)C(=O)N[C@@H](Cc1c[nH]cn1)C(=O)N[C@@H](CC(N)=O)C(=O)N[C@@H](CC(C)C)C(=O)NC(C)(C)C(=O)N[C@H](C(=O)N[C@@H](CCCNC(=N)N)C(=O)N[C@@H](CCC(N)=O)C(=O)N[C@@H](CCCNC(=N)N)C(=O)N[C@@H](CC1CCCCC1)C(N)=O)[C@@H](C)O) [Isobutanoyl-[Abu26, Cha27,36, His28, Aib31]-PYY(25-36)]", "Data value": 13}

All figures here come from patent US20120172293A1.
